Molecular target: TbGMPR (guanosine 5′-monophosphate reductase) (Trypanosoma brucei)
Assay: co-crystal structure at […] Å; activation of purified enzyme (EC50)
Assay type: biochemical
Set-up: gene Tb05.1P6.110; wild-type, C-terminal histidine-tag
recorded_metric: EC50

QUERY: Output EC50 of Nc1nc2c(ncn2[C@@H]2O[C@H](COP(=O)(O)OP(=O)(O)OP(=O)(O)O)[C@@H](O)[C@H]2O)c(=O)[nH]1 [GTP]
RESULT: 4.8 µM

----------
Molecular target: TbGMPR (guanosine 5′-monophosphate reductase) (Trypanosoma brucei, UniProt Q57ZS7, W115R)
Construct: gene Tb05.1P6.110; full-length, C-terminal histidine-tag
Sequence (Q57ZS7 1-491): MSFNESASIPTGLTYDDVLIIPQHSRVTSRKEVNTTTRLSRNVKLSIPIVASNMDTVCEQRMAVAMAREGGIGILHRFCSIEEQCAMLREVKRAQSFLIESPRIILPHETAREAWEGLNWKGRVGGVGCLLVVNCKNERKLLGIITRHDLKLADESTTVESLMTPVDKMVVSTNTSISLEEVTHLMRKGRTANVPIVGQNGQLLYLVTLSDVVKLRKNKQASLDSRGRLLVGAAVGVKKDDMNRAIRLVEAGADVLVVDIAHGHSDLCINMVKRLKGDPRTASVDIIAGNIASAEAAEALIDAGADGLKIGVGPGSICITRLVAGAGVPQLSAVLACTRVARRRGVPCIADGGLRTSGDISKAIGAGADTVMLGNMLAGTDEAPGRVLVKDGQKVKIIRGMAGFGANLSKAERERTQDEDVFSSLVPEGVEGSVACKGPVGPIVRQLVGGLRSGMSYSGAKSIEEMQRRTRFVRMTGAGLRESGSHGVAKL
Test: tryptophan fluorescence quenching
Format: binding
recorded_metric: pKd
Reminder that pKd means the negative base-10 logarithm of the concentration expressed in mol/L.

QUERY: Output pKd of Nc1ncnc2c1ncn2[C@@H]1O[C@H](COP(=O)(O)OP(=O)(O)OP(=O)(O)O)[C@@H](O)[C@H]1O
RESULT: 3.71
